Ref: patent US10463639B2

Target: ΔF508-CFTR (Homo sapiens, UniProt P13569, DEL508-508)
Sequence (P13569 with tags, fused parts or gaps DEL508-508): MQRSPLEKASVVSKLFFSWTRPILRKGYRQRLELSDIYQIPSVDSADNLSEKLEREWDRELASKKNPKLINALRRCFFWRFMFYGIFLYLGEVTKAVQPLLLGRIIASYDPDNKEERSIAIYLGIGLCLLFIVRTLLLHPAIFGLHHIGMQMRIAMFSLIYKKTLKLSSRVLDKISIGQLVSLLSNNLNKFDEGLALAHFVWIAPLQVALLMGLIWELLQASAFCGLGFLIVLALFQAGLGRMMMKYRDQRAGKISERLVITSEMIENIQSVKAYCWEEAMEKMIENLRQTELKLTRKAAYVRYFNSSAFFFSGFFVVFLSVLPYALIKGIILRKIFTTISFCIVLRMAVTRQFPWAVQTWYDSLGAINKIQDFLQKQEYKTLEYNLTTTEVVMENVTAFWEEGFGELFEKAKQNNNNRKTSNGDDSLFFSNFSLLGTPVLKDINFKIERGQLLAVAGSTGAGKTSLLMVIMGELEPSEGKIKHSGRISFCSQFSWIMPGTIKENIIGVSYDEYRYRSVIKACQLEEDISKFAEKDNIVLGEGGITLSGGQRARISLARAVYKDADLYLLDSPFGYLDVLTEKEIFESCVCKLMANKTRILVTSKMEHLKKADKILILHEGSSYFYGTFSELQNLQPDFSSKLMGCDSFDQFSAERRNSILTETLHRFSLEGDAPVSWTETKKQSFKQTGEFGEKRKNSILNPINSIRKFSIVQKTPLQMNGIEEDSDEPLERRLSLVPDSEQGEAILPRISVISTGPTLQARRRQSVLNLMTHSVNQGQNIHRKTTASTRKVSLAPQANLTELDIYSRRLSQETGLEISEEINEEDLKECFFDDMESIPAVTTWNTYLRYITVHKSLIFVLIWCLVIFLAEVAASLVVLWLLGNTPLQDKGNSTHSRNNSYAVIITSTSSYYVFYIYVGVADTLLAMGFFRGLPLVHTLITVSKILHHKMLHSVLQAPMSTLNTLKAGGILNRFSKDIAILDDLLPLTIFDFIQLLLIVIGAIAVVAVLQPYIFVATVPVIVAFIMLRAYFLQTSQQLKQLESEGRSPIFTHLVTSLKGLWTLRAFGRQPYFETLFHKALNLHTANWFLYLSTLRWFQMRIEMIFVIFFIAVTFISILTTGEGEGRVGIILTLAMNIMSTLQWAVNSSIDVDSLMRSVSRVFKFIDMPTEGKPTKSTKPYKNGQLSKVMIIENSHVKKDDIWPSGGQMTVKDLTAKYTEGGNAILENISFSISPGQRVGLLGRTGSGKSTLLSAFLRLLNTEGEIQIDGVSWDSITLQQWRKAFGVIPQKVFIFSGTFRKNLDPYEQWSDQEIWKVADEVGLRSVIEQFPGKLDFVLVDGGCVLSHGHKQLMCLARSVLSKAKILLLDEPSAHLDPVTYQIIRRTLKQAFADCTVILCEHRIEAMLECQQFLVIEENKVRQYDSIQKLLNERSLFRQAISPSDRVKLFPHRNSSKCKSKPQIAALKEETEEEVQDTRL
Assay: Iodide efflux (corrector effect) in ΔF508-CFTR HeLa cells after 24 hour pre-treatment
Settings: ΔF508-CFTR HeLa cells, wide range of concentrations
pEC50: −log10 of the molar value.
REPORTED METRIC: pEC50

COc1ccc2nc3cc(Cl)ccc3c(Nc3ccc(O)c(CN4CCN(C)CC4)c3)c2c1 [compound 130813] ... 6.00

(A) O=C(O)c1ccc(C(=O)O)c(C(=O)Nc2ccc3c(c2)Cc2ccccc2-3)c1 [compound 73100]
(B) O=P(O)(CCP(=O)(O)c1ccccc1)c1ccccc1 [compound 407882]
Which of these two has the smaller recorded pEC50: A or B ? State the label of the item chosen.
B
(B: 5.00, A: 6.07)
